Give growth inhibition for every item shown.
- ASSAY METHOD TEXT: NCI Yeast Anticancer Drug Screen. Data for the wt1 strain (AID 149);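 also: 0% = growth of vehicle-treated wt1 cultures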
- CONDITION INFO: S. cerevisiae wt1 strain (SPY 50644) growth inhibition; at 33.0 µM; hits give high values
This is part of a sample that, as a whole, favours compounds with a hit. Of some 79,000 tested, about 15% had one in any assay. The source made the active and inactive calls. Rule as the data show it: active = growth inhibition above about 70%; inactive = the rest.

A selection of reference data follows.
- COMPOUND: "OCC(CO)C(c1cccc2ccccc12)c1cccc2ccccc12"
  QUANTITY MEASURED: "growth inhibition"
  REPORTED RESULT: "99% (active)"
- COMPOUND: "O=C(c1ccc([N+](=O)[O-])cc1)C1N=NCC1c1ccccc1 (stereo not given)"
  QUANTITY MEASURED: "growth inhibition"
  REPORTED RESULT: "1% (inactive)"
- COMPOUND: "CCOC(=O)c1cc([N+](=O)[O-])c(Sc2ncnc3nc[nH]c23)c([N+](=O)[O-])c1"
  QUANTITY MEASURED: "growth inhibition"
  REPORTED RESULT: "62% (inactive)"
- COMPOUND: "CN(C)CCOC1(Cc2ccc(Cl)cc2Cl)CCC(C(C)(C)C)CC1 (stereo not given)"
  QUANTITY MEASURED: "growth inhibition"
  REPORTED RESULT: "99% (active)"
- COMPOUND: "COc1cccc(/C=N/C(/N=C/c2cccc(OC)c2O)c2cccc(OC)c2O)c1O"
  QUANTITY MEASURED: "growth inhibition"
  REPORTED RESULT: "26% (inactive)"
- COMPOUND: "CC(C)(C)c1ccc(NS(=O)(=O)c2ccc(N)cc2)cc1"
  QUANTITY MEASURED: "growth inhibition"
  REPORTED RESULT: "3% (inactive)"

Quick batch: growth inhibition for everything below.
1. O=C(O)c1ccc(N2C(=O)C=CC2=O)cc1
2. N#CC1=C(N)N(/N=C/c2ccccc2)C(c2ccccc2)C1(C#N)C#N (stereo not given)
3. CCCCC(CC)C(=O)[O][Sn]([CH2]CCC)([CH2]CCC)[O]C(=O)C(CC)CCCC (stereo not given)
4. Cc1cc(N(CCOS(C)(=O)=O)CCOS(C)(=O)=O)ccc1C=Nc1ccc(-c2csc(-c3ccccc3)n2)c(Cl)c1

Completion:
10% (inactive)
55% (inactive)
93% (active)
98% (active)
